Assay protocol: Inhibitory concentration against glyceraldehyde-3-phosphate dehydrogenase was determined as log 1/IC50
// boundary case: IC50 equal to 70 µM maps to not met; strictly smaller maps to met

Solved entries:
>>> class_label("COc1ccc2ccc(=O)oc2c1CC=C(C)C")
"not met"
>>> class_label("O=c1oc2c(O)cccc2cc1-c1ccc2c(c1)OCO2")
"met"
>>> class_label("COc1c2c(cc3oc(=O)ccc13)OCC2")
"not met"

[in] IC50 under 70 µM? Item: C=C(C)[C@H]1O[C@@H]1c1c(O)ccc2ccc(=O)oc12
[out] not met

[in] IC50 under 70 µM? Item: COc1cccc(-c2cc3cc(OC(C)=O)ccc3oc2=O)c1
[out] not met

[in] IC50 under 70 µM? Item: CC(=O)Oc1ccc2oc(=O)c(-c3ccc4c(c3)OCO4)cc2c1
[out] met

[in] IC50 under 70 µM? Item: C=C(C)[C@@H]1Cc2c(cc(O)c3ccc(=O)oc23)O1
[out] not met

[in] IC50 under 70 µM? Item: CC1=C2c3c(ccc4ccc(=O)oc34)OCC2OC1=O (stereo not drawn)
[out] not met

[in] IC50 under 70 µM? Item: O=c1oc2ccc(/N=C/c3ccco3)cc2cc1-c1ccc2c(c1)OCO2
[out] met

[in] IC50 under 70 µM? Item: CC1(C)C=Cc2c(ccc3ccc(=O)oc23)O1
[out] not met

###

Assay protocol: Inhibitory concentration of compound against glyceraldehyde-3-phosphate dehydrogenase was determined
Result type: IC50 (µM)
The figure you give is taken to be in µM; do not add the unit.

Some solved cases for reference:
>>> reported_measurement("COc1cccc(C(=O)NC2C(O)[C@@H](COP(=O)([O-])OP(=O)(O)OC[C@H]3O[C@@H]([n+]4ccc(C(N)=O)cc4)C(O)C3O)O[C@H]2n2cnc3c(NCc4cccc5ccccc45)ncnc32)c1 (stereo not given in full) [Adenosine analogue]")
0.1
>>> reported_measurement("CCOC(=O)c1cn([C@@H]2O[C@H](COC(=O)c3ccccc3)[C@@H](OC(=O)c3ccccc3)[C@H]2OC(=O)c2ccccc2)c2ccc(Cl)cc2c1=O")
29
>>> reported_measurement("COc1cccc(C(=O)NC2C(O)[C@@H](COP(=O)(O)O)O[C@H]2n2cnc3c(NCc4cccc5ccccc45)ncnc32)c1 (stereo not given in full)")
5
>>> reported_measurement("COc1ccc(-n2nc3c4ccccc4n([C@@H]4O[C@H](COC(=O)c5ccccc5)[C@@H](OC(=O)c5ccccc5)[C@H]4OC(=O)c4ccccc4)cc-3c2=O)cc1 [Adenosine analogue]")
45

Field: next compound
[in] Indicate its recorded IC50; the compound in question is COc1cccc(C(=O)NC2C(O)[C@@H](CO)O[C@H]2n2cnc3c(NCc4cccc5ccccc45)ncnc32)c1 (stereo not given in full)
[out] 12

###

Assay protocol: Inhibitory concentration against glyceraldehyde-3-phosphate dehydrogenase was determined as log 1/IC50
Result type: IC50

[in] Indicate its recorded IC50; the compound in question is C=CC(C)(C)c1cc2cc3c(cc2oc1=O)O[C@H](C(C)(C)O)C3 [Chalepin]
[out] 55 µM

###

Assay protocol: Inhibitory concentration against glyceraldehyde-3-phosphate dehydrogenase was determined as log 1/IC50
Below is a list of entries, each paired with its recorded log10 of IC50 value.
Quick note: numbers are log10 of IC50, with µM as the unit.

[in] Indicate its recorded log10 of IC50; the compound in question is C=CC(C)(C)c1cc2ccc(O)cc2oc1=O
[out] 2.21

[in] Indicate its recorded log10 of IC50; the compound in question is O=c1oc2ccccc2cc1-c1ccc(O)cc1 [3-(4-Hydroxy-phenyl)-chromen-2-one]
[out] 1.59

[in] Indicate its recorded log10 of IC50; the compound in question is O=c1oc2ccc(/N=C/c3ccc[nH]3)cc2cc1-c1ccc2c(c1)OCO2
[out] 1.75

[in] Indicate its recorded log10 of IC50; the compound in question is O=c1ccc2ccc(O)cc2o1
[out] 2.79

[in] Indicate its recorded log10 of IC50; the compound in question is COc1cc2ccc(=O)oc2cc1O [7-hydroxy-6-methoxy-2H-chromen-2-one]
[out] 2.41

[in] Indicate its recorded log10 of IC50; the compound in question is O=c1ccc2ccccc2o1
[out] 2.84

[in] Indicate its recorded log10 of IC50; the compound in question is CC(=O)Oc1ccc(-c2cc3cc(OC(C)=O)ccc3oc2=O)cc1
[out] 1.72

[in] Indicate its recorded log10 of IC50; the compound in question is CC(=O)Oc1ccc(-c2cc3cc(OC(C)=O)c(OC(C)=O)cc3oc2=O)cc1OC(C)=O
[out] 1.25

[in] Indicate its recorded log10 of IC50; the compound in question is CC(=O)Oc1ccc2oc(=O)c(-c3ccccc3)cc2c1
[out] 2.09

[in] Indicate its recorded log10 of IC50; the compound in question is CC1(C)C=Cc2cc3ccc(=O)oc3cc2O1
[out] 2.29

[in] Indicate its recorded log10 of IC50; the compound in question is O=c1oc2ccccc2cc1-c1cccc(O)c1
[out] 1.83

[in] Indicate its recorded log10 of IC50; the compound in question is CC(=O)Oc1cccc(-c2cc3cc(OC(C)=O)ccc3oc2=O)c1
[out] 1.23

[in] Indicate its recorded log10 of IC50; the compound in question is C=C(C)[C@H]1Cc2cc3ccc(=O)oc3cc2O1
[out] 2.16
